# System: BT-549 breast
# Test Summary: NCI tumour cell line growth inhibition, 48 h
Each record here notes measured TGI.

[
  {
    "Compound": "COc1cc(/C=C\\c2cc(OC)c(OC)c(OC)c2)cc(NS(=O)(=O)c2cccc(Cl)c2)c1OC",
    "Unit Text": "µM",
    "Qualifier Symbol": "=",
    "TGI": 2.46
  },
  {
    "Compound": "CN(C)C=Nc1nncc2n[nH]nc12",
    "Unit Text": "µM",
    "Qualifier Symbol": ">",
    "TGI": 100
  },
  {
    "Compound": "O=c1oc2ccccc2c(O)c1Cc1cccc(Cc2c(O)c3ccccc3oc2=O)c1",
    "Unit Text": "µM",
    "Qualifier Symbol": ">",
    "TGI": 100
  },
  {
    "Compound": "Cc1ccc(S(=O)(=O)N2CCN(CCO)CCN(S(=O)(=O)c3ccc(C)cc3)CCN(CCO)CC2)cc1",
    "Unit Text": "µM",
    "Qualifier Symbol": ">",
    "TGI": 100
  },
  {
    "Compound": "O=S(=O)(/N=C1/SC(=Nc2ccccc2)N(c2ccccc2)/C1=N/S(=O)(=O)c1ccccc1)c1ccccc1",
    "Unit Text": "µM",
    "Qualifier Symbol": "=",
    "TGI": 79.2
  },
  {
    "Compound": "COc1ccc(S(=O)(=O)n2c3ccccc3n3ncc(-c4nnc(C)o4)c23)cc1",
    "Unit Text": "µM",
    "Qualifier Symbol": "=",
    "TGI": 20
  },
  {
    "Compound": "O=C(Nc1nc(C23CC4CC(CC(C4)C2)C3)cs1)c1cc2cc([N+](=O)[O-])ccc2oc1=O",
    "Unit Text": "µM",
    "Qualifier Symbol": "=",
    "TGI": 40.4
  },
  {
    "Compound": "C=C1C(=O)O[C@H]2C3C(=C(C)CC[C@@H]12)C(=O)[C@@H]1OC31C (some centres not stated)",
    "Unit Text": "µM",
    "Qualifier Symbol": "=",
    "TGI": 4.6
  },
  {
    "Compound": "CCC1OC(/C(C)=C/C(C)/C=C/C2C(C)C2/C=C/C2OC(CC(=O)O)CC(O)C2O)CC=C1C (configuration not stated)",
    "Unit Text": "µM",
    "Qualifier Symbol": ">",
    "TGI": 50
  },
  {
    "Compound": "COc1cccc2ccc3c(c12)C(=O)OC31CCc2c(C)cccc21 (configuration not stated)",
    "Unit Text": "µM",
    "Qualifier Symbol": ">",
    "TGI": 100
  },
  {
    "Compound": "CCC(=O)OC1=CN2C(=NC(c3ccc(N)cc3)=CC2c2cc(OC)c(OC)c(OC)c2)S1 (configuration not stated)",
    "Unit Text": "µM",
    "Qualifier Symbol": "=",
    "TGI": 19.4
  },
  {
    "Compound": "Cc1ccc2c(=O)c(C(=O)N(CCO)CCO)c[nH]c2n1",
    "Unit Text": "µM",
    "Qualifier Symbol": ">",
    "TGI": 100
  },
  {
    "Compound": "Cc1nn(-c2ccccn2)c2c1C(SC#N)=C(C=O)CC2",
    "Unit Text": "µM",
    "Qualifier Symbol": "=",
    "TGI": 38.9
  },
  {
    "Compound": "Cc1cc(O)c2c(c1)C(=O)C(c1c(C)cc3c(c1O)C(=O)C1OC1C3=O)=CC2=O (configuration not stated)",
    "Unit Text": "µM",
    "Qualifier Symbol": "=",
    "TGI": 6.32
  },
  {
    "Compound": "O=c1c(-c2ccc(O)cc2)coc2cc(O)cc(O)c12",
    "Unit Text": "µM",
    "Qualifier Symbol": ">",
    "TGI": 100
  },
  {
    "Compound": "Cc1nnc2sc(-c3ccc([N+](=O)[O-])o3)nn12",
    "Unit Text": "µM",
    "Qualifier Symbol": "=",
    "TGI": 22.5
  },
  {
    "Compound": "Cc1cc(Cl)ccc1NC(=O)NC(C)(C)COC(=O)Nc1cccc(Cl)c1",
    "Unit Text": "µM",
    "Qualifier Symbol": ">",
    "TGI": 100
  },
  {
    "Compound": "CC(C)(O)CCC(O)C(C)(O)C1CCC2(O)C3=CC(=O)C4(O)CC(O)C(O)CC4(C)C3CCC12C (configuration not stated) (tested in a mixture with another compound)",
    "Unit Text": "µM",
    "Qualifier Symbol": ">",
    "TGI": 100
  },
  {
    "Compound": "Cc1ccc(/C=C2\\CN(Cc3cn(CCNc4ccnc5cc(Cl)ccc45)nn3)C/C(=C\\c3ccc(C)cc3)C2=O)cc1",
    "Unit Text": "µM",
    "Qualifier Symbol": "=",
    "TGI": 3.35
  },
  {
    "Compound": "CC(C)=CCC/C(C)=C/[C@H]1OC(=O)CC12C[C@H](O)C=CC2=O (some centres not stated)",
    "Unit Text": "µM",
    "Qualifier Symbol": "=",
    "TGI": 3.17
  },
  {
    "Compound": "Cn1c(O)c(N=NC(N)=S)c2ccccc21",
    "Unit Text": "µM",
    "Qualifier Symbol": ">",
    "TGI": 100
  },
  {
    "Compound": "O=S1(=O)CC(Br)C(Br)C1 (configuration not stated)",
    "Unit Text": "µM",
    "Qualifier Symbol": "=",
    "TGI": 18.5
  },
  {
    "Compound": "C=C1C(=O)O[C@H]2C/C(C=O)=C\\[C@H]3O[C@H]3/C(COC(=O)C(C)C)=C/CC12 (some centres not stated)",
    "Unit Text": "µM",
    "Qualifier Symbol": "=",
    "TGI": 24.8
  },
  {
    "Compound": "CN(C)CCNc1c2c(c(NCCN(C)C)c3c(CO)c[nH]c13)C(=O)c1ccccc1C2=O",
    "Unit Text": "µM",
    "Qualifier Symbol": "=",
    "TGI": 23.5
  },
  {
    "Compound": "C=C1C(=O)O[C@H]2[C@H]1CC/C(COC(=O)/C=C/c1c[nH]c3ccccc13)=C\\CC[C@@]1(C)O[C@@H]21",
    "Unit Text": "µM",
    "Qualifier Symbol": "=",
    "TGI": 0.384
  },
  {
    "Compound": "COc1cc(S(=O)(=O)N/N=C/c2cc(Br)c(O)c(OC)c2)c(OC)cc1NC(C)=O",
    "Unit Text": "µM",
    "Qualifier Symbol": ">",
    "TGI": 100
  },
  {
    "Compound": "Cc1ccc2cnc(N)c(C#Cc3cncc(C(=O)Nc4ccc(CN5CCN(C)CC5)c(C(F)(F)F)c4)c3)c2c1",
    "Unit Text": "µM",
    "Qualifier Symbol": "=",
    "TGI": 1.73
  }
]
